The following molecules are listed with their measured EC50 values.
tested on: CEM cells HIV-1 protection, formazan growth assay; assay: NCI AIDS Antiviral Assay

Examples from the recorded data:
[[record]]
molecule = "CCOC(=O)C(=O)C(/C(=N/N(C)C)C(=O)Nc1ccc(C)cc1C)c1nc2ccccc2[nH]c1=O (configuration not stated)"
result = "> 380 µM"

[[record]]
molecule = "COC(=O)C(=O)C(C(=O)C(=O)Nc1ccccc1C(N)=O)c1nc2ccc([N+](=O)[O-])cc2[nH]c1=O (configuration not stated)"
result = "> 525 µM"

[[record]]
molecule = "COc1ccc(CC(=O)C2C(=O)N(C)c3ccccc32)cc1OC (configuration not stated)"
result = "> 200 µM"

[[record]]
molecule = "O=C1NC(=O)C2C1N(Cc1ccccc1)C(=O)N2Cc1ccccc1 (configuration not stated)"
result = "> 107 µM"

[[record]]
molecule = "[O-][n+]1nc(N2CCOCC2)nc2ccccc21"
result = "> 200 µM"


Query :: What does the record list as EC50 for Cc1cc(-c2ccc(C(=O)O)[nH]2)on1 ?
Result :: > 200 µM

Query :: What does the record list as EC50 for CNC1c2ccccc2C(=O)c2cc3c(cc21)OCCOCCOCCOCCO3 (configuration not stated) ?
Result :: > 200 µM

Query :: What does the record list as EC50 for O=C(Cn1ccnc1[N+](=O)[O-])NCc1ccc(F)cc1 ?
Result :: > 178 µM

Query :: What does the record list as EC50 for CC1(C)CCCC2(C)C3=C(CCC12)C(=O)OC3 (configuration not stated) ?
Result :: > 30.9 µM

Query :: What does the record list as EC50 for CCOC(=O)CCCNC(=O)c1ccccc1SC(=O)CCCC[n+]1ccccc1 ?
Result :: > 2 µM

Query :: What does the record list as EC50 for COc1ccc(/C(Cl)=C(\C#N)c2ccc(OC)c(OC)c2)cc1OC ?
Result :: > 200 µM

Query :: What does the record list as EC50 for CC(C)(CCCCC(C)(C)C1NC(=O)N1)C1NC(=O)N1 ?
Result :: > 200 µM

====

system: CEM cells HIV-1 protection, formazan growth assay; test: NCI AIDS Antiviral Assay; details: measured here: growth of uninfected CEM cells
The following molecules are listed with their measured pIC50 values.
Note on units: pIC50 is unitless, being -log10 of a concentration expressed in mol/L.

Examples from the recorded data:
[[record]]
molecule = "CCOC(=O)C(Cc1cccc2ccccc12)S(=O)(=O)c1ccc(C)cc1 (stereo not given)"
quantitative_result = 4.73

[[record]]
molecule = "N#C/C(=N/Nc1nc[nH]c1C(N)=O)C(=O)Nc1ccccc1"
quantitative_result = 5.97

[[record]]
molecule = "CC(=O)O/C(=C(/C#N)C(=O)O)C1C(C(=O)O)C(c2ccccc2[N+](=O)[O-])C=C(c2ccco2)N1c1ccncc1 (stereo not given)"
quantitative_result = 5.62


Query :: Field: pIC50 (CEM cells HIV-1 protection, formazan growth assay). Entry: CCOC(=O)NC1=C(N2CC2)C(=O)C(NC(=O)OCC)=C(N2CC2)C1=O
Result :: 5.19

====

tested on: CEM cells HIV-1 protection, formazan growth assay; test: NCI AIDS Antiviral Assay; conditions: measured here: growth of uninfected CEM cells
The following compounds are listed with their measured IC50 values.

Query :: What does the record list as IC50 for CCOC(=O)C(=O)Nc1c(C)cccc1C(C)(C)C ?
Result :: > 135 µM

Query :: What does the record list as IC50 for O=C(O)OC12CCCCCC1C(=O)C1CCCCC12 (centres undefined) ?
Result :: > 200 µM

Query :: What does the record list as IC50 for C=CCc1ccc(Oc2cc(CC=C)c3c(c2O)O[C@@H](CO)[C@H]3c2ccc(O)c(-c3cc(CC=C)ccc3O)c2)cc1 ?
Result :: > 100 µM

Query :: What does the record list as IC50 for Cc1cn(C2CC(N)C(C(=O)NCC(=O)O)O2)c(=O)[nH]c1=O (centres undefined) ?
Result :: > 200 µM

The values you see were collected from PubChem BioAssay AID179.
